# test_system: Hck (UniProt P08631)
# Sequence (P08631 whole entry, looked up): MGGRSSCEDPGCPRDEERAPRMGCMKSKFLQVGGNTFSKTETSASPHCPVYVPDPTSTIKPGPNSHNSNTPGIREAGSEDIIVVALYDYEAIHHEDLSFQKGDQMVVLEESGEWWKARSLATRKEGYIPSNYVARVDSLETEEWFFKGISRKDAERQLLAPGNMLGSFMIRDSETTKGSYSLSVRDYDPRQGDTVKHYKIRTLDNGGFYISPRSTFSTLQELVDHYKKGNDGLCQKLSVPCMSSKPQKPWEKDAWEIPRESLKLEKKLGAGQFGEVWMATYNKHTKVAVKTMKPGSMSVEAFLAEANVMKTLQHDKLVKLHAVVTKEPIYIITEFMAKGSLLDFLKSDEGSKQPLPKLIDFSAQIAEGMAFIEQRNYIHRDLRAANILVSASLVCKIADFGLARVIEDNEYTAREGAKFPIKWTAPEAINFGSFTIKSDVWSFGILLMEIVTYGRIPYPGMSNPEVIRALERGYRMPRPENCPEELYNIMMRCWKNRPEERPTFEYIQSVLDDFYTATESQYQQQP
# method_summary: phosphorylation enrichment, bacterial display (enrichment ratio); higher = better substrate or ligand; peptides without Tyr show the background;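 note: 11-residue human phosphosite peptides and single-mutation variants displayed on the E. coli surface, counted by deep sequencing, each peptide's frequency after selection divided by its frequency in the unselected input library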;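 note: frequency after pTyr selection over input frequency; kinase dosed for 20-30% of maximal phosphorylation in three min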
Respond with true (1) for phosphorylation enrichment values of 0.7 and above, false (0) for values below.

chain	group
VPTSKYRGGGG [HBA1_Y141_L137P]	false (0)

Q: Is it the case that QGFDTYFGFLL [ARSB_Y165_R160Q_YF] has phosphorylation enrichment reaching or exceeding 0.7?
A: true (1)

Q: Is it the case that CSEEMYCLMLQ [RET_Y981_R982C] has phosphorylation enrichment reaching or exceeding 0.7?
A: true (1)

Q: Is it the case that PLDVEYFTLQI [TP53_Y327_G325V] has phosphorylation enrichment reaching or exceeding 0.7?
A: true (1)

Q: Is it the case that IEENGYNTYAS [FGF10_Y161] has phosphorylation enrichment reaching or exceeding 0.7?
A: false (0)
